Cited source for all entries: patent US20090036365A1

Readings of Phage Binding (relative to BPTI phage) for the listed binders
test_target: T1, human plasmin (human, UniProt P00747 97-810, limits assumed)
T1 construct: also called plasmin-beads; plasmin-agarose beads
T1 sequence (P00747 97-810 limits assumed): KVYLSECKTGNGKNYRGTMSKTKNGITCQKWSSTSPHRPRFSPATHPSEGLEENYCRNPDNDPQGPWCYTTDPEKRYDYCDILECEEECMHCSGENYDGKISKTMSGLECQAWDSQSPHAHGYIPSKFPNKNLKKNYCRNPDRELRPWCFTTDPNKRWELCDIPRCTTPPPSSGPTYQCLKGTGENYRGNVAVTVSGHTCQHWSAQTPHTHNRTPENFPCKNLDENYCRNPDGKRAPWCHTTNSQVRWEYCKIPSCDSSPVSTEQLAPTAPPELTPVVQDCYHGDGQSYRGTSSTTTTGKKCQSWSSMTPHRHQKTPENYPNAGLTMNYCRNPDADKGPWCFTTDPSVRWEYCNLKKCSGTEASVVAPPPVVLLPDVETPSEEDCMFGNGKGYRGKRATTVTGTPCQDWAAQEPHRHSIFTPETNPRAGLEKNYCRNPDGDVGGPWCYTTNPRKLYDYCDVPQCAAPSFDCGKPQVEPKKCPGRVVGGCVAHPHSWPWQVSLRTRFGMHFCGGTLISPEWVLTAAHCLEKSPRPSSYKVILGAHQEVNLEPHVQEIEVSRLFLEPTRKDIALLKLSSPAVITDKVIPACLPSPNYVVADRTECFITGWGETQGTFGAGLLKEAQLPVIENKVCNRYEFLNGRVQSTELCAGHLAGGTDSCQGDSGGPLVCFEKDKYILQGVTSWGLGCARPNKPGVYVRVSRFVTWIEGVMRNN
run_description: binding of clonally pure display phage to plasmin relative to BPTI display phage

Recorded results for 6 binders are shown here.
| binder | Phage Binding (relative to BPTI phage) |
| --- | --- |
| SPI08 (designed binder, also called isolate 08) MHSFCAFKADGGPCRARFERFFFNIFTRQCEEFIYGGCEGNQNRFESLEECKKMCTRD | 2.6 fold of BPTI phage |
| SPI05 (designed binder, 105 for the printed residues 10-21) MHSFCAFKAESGPCRAKFARFFFNIFTRQCEEFIYGGCEGNQNRFESLEECKKMCTRD | 0.64 fold of BPTI phage |
| SPI17 (designed binder, 104 for the printed residues 10-21) MHSFCAFKAEVGPCRARIQRFFFNIFTRQCEEFIYGGCEGNQNRFESLEECKKMCTRD | 0.09 fold of BPTI phage |
| SPI23 (designed binder, also called isolate 23) MHSFCAFKAEGGPCRAKFQRWFFNIFTRQCEEFIYGGCEGNQNRFESLEECKKMCTRD | 1.25 fold of BPTI phage |
| SPI03 (designed binder, 108 for the printed residues 10-21) MHSFCAFKADSGPCKARFDRWFFNIFTRQCEEFIYGGCEGNQNRFESLEECKKMCTRD | 0.48 fold of BPTI phage |
| SPI01 (designed binder, 112 for the printed residues 10-21) MHSFCAFKADSGACRAMFHRFFFNIFTRQCEEFIYGGCEGNQNRFESLEECKKMCTRD | 0.25 fold of BPTI phage |

Note: attention shifts to another entry.
# binder SPI02 (designed binder, 102 for the printed residues 10-21) MHSFCAFKADSGPCRGRFERFFFNIFTRQCEEFIYGGCEGNQNRFESLEECKKMCTRD ; its Phage Binding (relative to BPTI phage) = 0.83 fold of BPTI phage
